molecular target: human Gal-1 (hGal-1) (Homo sapiens, UniProt P09382, C131S/C17S/C43S/C61S/C89S); assay: Competitive binding assay: biotinylated hGal-1 binding to microplate-adsorbed asialofetuin (ASF); conditions: IC50 values from several measurements given as geomean
pIC50: −log10 of the molar value.
measurement.type: pIC50

compound.structure.string | measurement.type | measured
CO[C@@H]1[C@@H](n2cc(-c3ccc(C)c(F)c3F)nn2)[C@@H](O)[C@@H](CO)O[C@@H]1Cc1cn([C@H]2CCC[C@@H]2O)nn1 | pIC50 | 5.50

P = CO[C@@H]1[C@@H](n2cc(-c3ccc(C)c(F)c3F)nn2)[C@@H](O)[C@@H](CO)O[C@@H]1Cc1cn(C2(C)COC2)nn1
Q = CO[C@@H]1[C@@H](n2cc(-c3ccc(Br)c(F)c3F)nn2)[C@@H](O)[C@@H](CO)O[C@@H]1Cc1cn(C23CC(OC)(C2)C3)nn1
Q: Consider P and Q . Which of these has its pIC50 at a higher number? Returns: label corresponding to the selected item.
Ans: P
